Reported melting point values for the following compounds.

In [3]: df
Out[3]:
                            compound_string  observed_value
0  Nc1nc(Cl)c(NC=O)c(N[C@H]2C=C[C@@H](CO)C2)n1   174 to 176 °C
1  Nc1ccccc1NC(=O)c1ccc(NC(=O)Cc2ccccc2)cc1   232 to 237 °C
2  COc1nnc(-c2ccc3ncn(-c4ccc(OC(F)(F)F)cc4)c3c2)o1   150 to 151 °C
3             Nc1ncc2cc(-c3ccncc3)c(N)nc2n1        > 340 °C

Next item in the queue.
// query Bench note: what melting point did `O=C(NNc1nc2ccccc2n2cccc12)c1cc2ccccc2[nH]1` show?
// result 186 °C
